System: MDA-MB468
protocolSummary: XTT assay, anti-proliferative action, MDA-MB468
Format: cell-based
measurementConditions: Homo sapiens, MDA-MB-468, 45 h, MDA-MB468 cells, 45 h incubation
Catalogue of EC50 readings, one per entry.
Kindly provide the numeric value in µM only, without the unit symbol.

In the examples that follow, each entry is paired with its recorded EC50.
- CONC(=O)Nc1ccc2ncc(-c3ccc(O)c(OC)c3)nc2n1: 7.1
- CCNC(=O)Nc1ccc2ncc(-c3ccc(OC(=O)OCCOC)c(OC)c3)nc2n1: 4.5
- CCNC(=O)Nc1ccc2ncc(-c3cccc(OC(=O)OCCOC)c3)nc2n1: 11

Now turn to the next compound.
Please list EC50 recorded for the compound "CCNC(=O)Nc1ccc2ncc(Nc3ccc(C)c(NS(C)(=O)=O)c3)nc2n1"
16
